Test system: UO-31 renal
Test: NCI tumour cell line growth inhibition, 48 h
quantity_name: TGI

> print(dat)
                                    compound  observed.value
 1  Cn1cc(-c2nc(-c3c[nH]c4ccncc34)cs2)c2ccccc21         2.69 µM
 2  O=C1Nc2ccccc2/C1=C\c1cccc(/C=C2/C(=O)Nc3ccccc32)n1         2.37 µM
 3        Cc1ccc2[nH]c3c(c2c1)N=c1ccccc1=NO3        > 100 µM
 4  COC(=O)[C@H]1[C@@H](O)[C@@]2(O)c3c(OC)cc(OC)cc3O[C@@]2(c2ccc3c(c2)OCO3)[C@@H]1c1ccccc1       0.0223 µM
 5      N#C/C(=C/n1c(=S)[nH]c2ccccc21)C(N)=O        > 100 µM
 6                NC(=O)COc1c(Br)cc(Br)cc1Br        > 100 µM
 7                    COC1=CC(=O)C(Br)=CC1=O         31.7 µM
 8  Cc1cc2c(cc1C)[n+](=O)c(C(=O)/C=C/c1ccc3c(c1)OCO3)c(C)n2[O-]        > 100 µM
 9  CC(=O)Oc1c2c(c(OC(C)=O)c3c1n(C(C)=O)c1ccccc1n3C(C)=O)n(C(C)=O)c1ccccc1n2C(C)=O         25.2 µM
10  O=C1NC(=O)[C@@]2(CC[C@@H](O)C2)c2ccncc21        > 100 µM
11  O=S(c1ccccc1)C1CC2CC3(CCC21O)OCCO3 (configuration not stated)        > 100 µM
12  COCCOC(C)C(=O)C(O)S(=O)(=O)O (configuration not stated)        > 100 µM
13  O=C(O)/C=C/c1ccc[c]([Sb](=[O])([OH])[OH])c1        > 100 µM
14  Cc1cc(Br)cc(C)c1NC(=O)C(=O)C(C(=O)c1ccncc1)C1OC(=O)c2ccccc21 (configuration not stated)        > 100 µM
15                 COc1ccc(OC)c(NC2=NCCO2)c1        > 100 µM
16  O=C(OCC1CCCN2CCCCC12)c1cccnc1 (configuration not stated)        > 100 µM
17  O=C(N/C(=C\c1c(O)ccc2ccccc12)c1nc2ccccc2[nH]1)c1ccccc1        > 100 µM
18  Cc1cn(CCC(N)C(=O)O)c(=O)[nH]c1=O (configuration not stated)        > 100 µM
19  CCCN(CCC)CCc1cc(C(C)=O)n(S(=O)(=O)c2ccc(C)cc2)c1        > 100 µM
20  c1cc(CN2CCCNCCNCCCNCC2)ccc1CN1CCCNCCNCCCNCC1        > 100 µM
21  CC/C=C\C[C@H](O)C/C=C1/C(=O)C=C[C@@H]1C/C=C\CCCC(=O)OC(C)C         3.84 µM
22  CCn1c(-c2c(Cl)cc(O)cc2Cl)cc2c(Cl)cc(O)cc21        > 100 µM
23  CCO/C(CCn1[nH]c(=O)c(Cl)c(Cl)c1=O)=N\NC(=O)C(=O)NN        > 100 µM
24  NCCOCn1cc(Cc2cccc(OCc3ccccc3)c2)c(=O)[nH]c1=O        > 100 µM
25  COc1ccc(C2S/C(=C\c3cccc(OC)c3)C(=O)N2NC(=O)Cc2ccccc2)cc1 (configuration not stated)        > 100 µM
26  N=c1n(CC(=O)NC23CC4CC(CC(C4)C2)C3)c2ccccc2n1CC(=O)NC12CC3CC(CC(C3)C1)C2           26 µM
27              NC(=S)Nc1ccc2c(c1)oc1ccccc12        > 100 µM
28  O=C1C(C(c2ccc([N+](=O)[O-])cc2)N2CCOCC2)=C(O)C(c2ccccc2)N1c1ccccc1 (configuration not stated)         > 10 µM
29      S=c1nc(C(c2ccccc2)c2ccccc2)[nH][nH]1        > 100 µM
30  O=C(/C=C/c1ccc(OCc2ccccc2)cc1)NCc1ccc(C(=O)NCc2ccccc2)cc1        > 100 µM
31        Cc1cc2c(c3nocc13)C(=O)c1ccccc1C2=O        > 100 µM
32  O=c1/c(=C/c2c(O)ccc3ccccc23)sc2nc3ccccc3n12        > 100 µM

* * *

Tested on: MOLT-4 leukemia
Assay: NCI tumour cell line growth inhibition, 48 h
Decision: TGI compared against 50 µM; not below it gives label 1, below it gives label 0.

molecule	category
C=C1C(=O)[C@]23C[C@H]1C[C@@H](O)[C@H]2[C@]1(COC3=O)[C@@H](OC(C)=O)CC[C@@](C)(COC(C)=O)[C@H]1C=O	label 0
Cc1ccc(/C(O)=C/c2nc3cccnc3[nH]c2=O)cc1	label 1
O=C(NNS(=O)(=O)c1ccc(Br)cc1)c1ccc(Cl)cc1NC(=O)C12CC3CC(CC(C3)C1)C2	label 1
CC(C)(CN1CCOCC1)C(=O)/C=C/c1ccc(/C=C/C(=O)C(C)(C)CN2CCOCC2)cc1	label 0
O=C(/C=C/c1ccc(OCc2ccccc2)cc1)NCc1ccc(C(=O)NCc2ccccc2)cc1	label 1
O=C(O)CNc1ccc(Cl)c(Cl)c1	label 1
CSC(=Nc1ccccc1Cl)NC(=O)c1ccc(Br)cc1	label 1
Cc1c(OCCCOc2ccc3c(=O)cc(-c4ccccc4)oc3c2C)ccc2c(=O)cc(-c3ccccc3)oc12	label 1
Cc1ccc(-c2c(C#N)[n+](=O)c3cc(F)c(F)cc3n2[O-])cc1	label 0

* * *

System: UO-31 renal
Assay: NCI tumour cell line growth inhibition, 48 h; in the data active = GI50 below about 0.43 µM; inactive = the rest
Labels: yes = active, no = inactive

> print(dat)
                                   molecule  assayed.system  category
1      Oc1[nH]c(N=C2N=c3ccccc3=N2)c2ccccc12     UO-31 renal        no
2  O=C1/C(=C/c2ccc(F)c(F)c2)CN(C(=O)C(Cl)Cl)C/C1=C\c1ccc(F)c(F)c1     UO-31 renal       yes
3  COC12C=C/C(=C(/C(=O)OCCSc3ccnn3C)C(=O)CCCCCCCCC3(OC)C=C/C(=C(/C(=O)OCCSc4ccnn4C)C(=O)CCCCCCCC1)O3)O2     UO-31 renal        no
4   O=C1CSC(c2ccc(-c3nc4ccccc4[nH]3)cc2)=N1     UO-31 renal        no
5           N#Cc1ccc(CSc2ncnc3nc[nH]c23)cc1     UO-31 renal        no

* * *

Readings of TGI for the listed compounds
Test system: KM12 colon
Assay: NCI tumour cell line growth inhibition, 48 h
Where a SMILES comes first, the peptide text is derived from it. [ ]: non-standard residue; d: D form. The star is where a group is joined. X28 = COC1=CC(=O)N(C(=O)[C@@H](O*)C(C)C)[C@H]1Cc1ccccc1; Bn2Val = CC(C)[C@@H](C(=O)*)N(Cc1ccccc1)Cc1ccccc1; NMeV = CN[C@H](C(=O)O)C(C)C; dNMeA = CN[C@H](C)C(=O)O

compound	TGI
CCCCOc1c(C(=O)O)cc(Br)cc1C(=O)O	> 100 µM
N#CCCN(CCC#N)c1ccc(/C=C2\SC(=S)NC2=O)cc1	> 100 µM
O=C1CSC(c2ccc(-c3nc4ccccc4[nH]3)cc2)=N1	> 50 µM
COc1cc2c3c(n(CCCCNC(=O)OC(C)(C)C)c(=O)c2cc1OC)-c1cc2c(cc1C3=O)OCO2	> 100 µM
COc1ccc2c3c(c(C(=O)O)oc13)CCC2	> 100 µM
COC1=CC(=O)N(C(=O)[C@@H](OC(=O)[C@@H](C)N(C)C(=O)[C@@H]2CCCN2C(=O)[C@H](C(C)C)N(C)C(=O)[C@@H](NC(=O)[C@H](C(C)C)N(Cc2ccccc2)Cc2ccccc2)C(C)C)C(C)C)[C@H]1Cc1ccccc1 (Bn2Val-V[NMeV]P[dNMeA]-X28)	> 100 µM
COC(=O)[C@H]1[C@@H](O)[C@@]2(O)c3c(OC)cc(OC)cc3O[C@@]2(c2ccc3c(c2)OCO3)[C@@H]1c1ccccc1	0.113 µM
CCOc1cc(C(=O)O)c2c(ccc3ccc(OC)c(OC)c32)c1OC	> 100 µM

* * *

Test system: MCF7 breast
Test: NCI tumour cell line growth inhibition, 48 h
Readings of GI50 for the listed molecules
quantity_name: GI50

> print(dat)
                                   molecule  assayed.system  quantity.name  observed.value
1  CCC#CC[C@H](O)C/C=C1/C(=O)C=C[C@@H]1C/C=C\CCCC(=O)OC     MCF7 breast           GI50        0.297 µM
2  Cc1cc(C(=O)Nc2cc(Oc3ccc4nc(NC(=O)C5CC5)cn4n3)ccc2C)n(C)n1     MCF7 breast           GI50         6.41 µM
3  CCN1C(=O)N(CC)C2C1NN=c1s/c(=C\c3cccs3)c(=O)n12 (centres undefined)     MCF7 breast           GI50       0.0496 µM
4  C=C(C)[C@@H]1C/C=C(/CO)CC[C@H]2O[C@]2(C)CC/C=C(\C)CC1     MCF7 breast           GI50         15.7 µM
5      Oc1[nH]c(N=C2N=c3ccccc3=N2)c2ccccc12     MCF7 breast           GI50         2.65 µM
6  CC(CN(C)C)S(=O)(=O)c1ccc(-c2cnc(N)c(C(=O)Nc3ccccc3)n2)cc1 (centres undefined)     MCF7 breast           GI50         1.58 µM
7  COc1ccc(N2C(=O)/C(=C/C(Cl)=C/c3ccc([N+](=O)[O-])cc3)SC2=S)cc1     MCF7 breast           GI50        0.393 µM
8  COC1CC(C)C(OC)c2cc(O)cc(c2O)NC(=O)/C(C)=C/C=C\C(C)C(OC(N)=O)/C(C)=C\C(C)C1OC (centres undefined)     MCF7 breast           GI50       0.0482 µM
9  O=C1OCC(c2ccc(O)cc2)=C1c1cc(O)c(O)c(O)c1     MCF7 breast           GI50         77.5 µM
